Molecular target: T1, human MASP-2cf CCP1-CCP2-SP (human, UniProt O00187 298-686, limits assumed)
T1 construct: domain: CCP1-CCP2-SP; also called human MASP-2 catalytic fragment
T1 sequence (O00187 298-686 limits assumed): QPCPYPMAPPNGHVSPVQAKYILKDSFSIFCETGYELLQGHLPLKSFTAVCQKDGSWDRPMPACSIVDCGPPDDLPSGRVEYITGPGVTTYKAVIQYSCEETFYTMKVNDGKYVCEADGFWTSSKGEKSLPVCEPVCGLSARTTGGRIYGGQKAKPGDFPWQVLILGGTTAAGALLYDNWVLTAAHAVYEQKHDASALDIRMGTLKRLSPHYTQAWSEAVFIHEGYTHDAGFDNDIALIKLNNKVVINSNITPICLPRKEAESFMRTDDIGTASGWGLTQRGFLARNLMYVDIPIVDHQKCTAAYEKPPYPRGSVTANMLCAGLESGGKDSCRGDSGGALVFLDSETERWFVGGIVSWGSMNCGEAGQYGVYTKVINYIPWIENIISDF
Assay: SPR, target immobilised
Where no end group is shown, it is not given here.
measured.quantity: Relative affinity

Answered cases to consult:
EVO2d (designed binder, not fully specified; cysteine pairing not given here, Modified TFPI-D2 Kunitz domain; made as m1) KPDFCFLEEDPGPCRALKRRYFYNNQTKQCERFKYGGCLGNMNNFETLEECKNICEDG
1.5 fold vs EVO2
EVO22a (designed binder, Modified TFPI-D2 Kunitz domain; made as m1) KPDFCFLENDPGPCRAAKRRYFYNNQTKQCERFYYGGCLGNMNNFVTLEECKNICEDG
40.1 fold vs EVO2
EVO213 (designed binder, Modified TFPI-D2 Kunitz domain; made as m1) KPDFCFLENDPGPCRAAKRRYFYNNQTKQCERFGYGGCLGNMNNFVTLEECKNICEDG
3.3 fold vs EVO2
EVO24 (designed binder, not fully specified; cysteine pairing not given here, Modified TFPI-D2 Kunitz domain; made as m1) KPDFCFLENDPGPCRALKRRYFYNNQTKQCERFYYGGCLGNMNNFETLEECKNICEDG
6.5 fold vs EVO2

### Prompt For the binder EVO2c (designed binder, not fully specified; cysteine pairing not given here, Modified TFPI-D2 Kunitz domain; made as m1) KPDFCFLEEDPGPCRAVKRRYFYNNQTKQCERFYYGGCLGNMNNFETLEECKNICEDG , give its measured Relative affinity value.
### Response 1.7 fold vs EVO2
